biological target: human GLP-1 receptor (human, UniProt P43220 24-463); test: cell-based or functional assay
Where no end group is shown, it is not given here.
Listed here: items and their measured GLP-1 receptor activation relative to Val^8-GLP-1 (7-37) OH.
ENDPOINT LABEL: GLP-1 receptor activation relative to Val^8-GLP-1 (7-37) OH

INSERT INTO results (binder, test_value) VALUES
  ('HVEGTFTSDVSSFLEEQAAKEFIAWLVKGRG-OH [Val^8-Phe^19-Glu^22-GLP-1 (7-37) OH]', '1.5 relative to Val^8-GLP-1 (7-37) OH'),
  ('HVEGTFTSDVSFYLEEQAAKEFIAWLVKGRG-OH [Val^8-Phe^18-Glu^22-GLP-1 (7-37) OH]', '2 relative to Val^8-GLP-1 (7-37) OH'),
  ('HVEGTFTSDVSSYLEGQAAKEFIAWLVKERG-OH [Val^8-Glu^35-GLP-1 (7-37) OH]', '0.3 relative to Val^8-GLP-1 (7-37) OH'),
  ('HVEGTFTSDVSSYLEGQAAKEFIAWLVKGEG-OH [Val^8-Glu^36-GLP-1 (7-37) OH]', '0.2 relative to Val^8-GLP-1 (7-37) OH'),
  ('HVEGTFTSDVSSYLEGQAAKEFIAWLVKGGP-NH2 [Val^8-Gly^36-Pro^37-GLP-1 (7-37) NH2]', '1.2 relative to Val^8-GLP-1 (7-37) OH'),
  ('HVEGTFTSDVSSYLESQAAKEFIAWLVKGRG-OH [Val^8-Ser^22-GLP-1 (7-37) OH]', '1.1 relative to Val^8-GLP-1 (7-37) OH');
